Every entry's value here was drawn from paper PMC9275543.

- SYSTEM UNDER TEST: SARS-CoV-2-Main protease (Main pro) (Severe acute respiratory syndrome coronavirus 2)
pKd: −log10 of the molar value.
PARAMETER MEASURED: pKd

// query pKd value for entry C[C@@H]1C[C@H]2[C@@H]3CCC4=CC(=O)C=C[C@]4(C)[C@@]3(F)[C@@H](O)C[C@]2(C)[C@@]1(O)C(=O)CO [Dexamethasone] < 5.30
